melting point overview

> print(dat)
                              smiles.record  endpoint.name    test.result
1  Cc1oc(-c2ccccc2)nc1CCOc1ccc(S(=O)(=O)Nc2cc(-c3ccccc3)ccc2C(=O)O)cc1  melting point  177 to 179 °C
2  Cc1oc(-c2ccccc2)nc1CCOc1ccc(COc2cc(C(F)(F)F)cc(C(F)(F)F)c2C(=O)O)cc1  melting point  162 to 163 °C
3  Cc1oc(-c2ccccc2)nc1CSc1ccc(S(=O)(=O)Nc2ccccc2C(=O)O)cc1  melting point  182 to 184 °C
4  Cc1oc(-c2ccccc2)nc1COc1ccc(S(=O)(=O)Nc2cc(Cl)ccc2C(=O)O)cc1  melting point   98 to 100 °C
5  COc1ccc(C(=O)O)c(OCc2ccc(OCCc3nc(-c4ccccc4)oc3C)cc2)c1  melting point  113 to 115 °C

Here is another molecule to look at.
Query string: Recall and state the measured melting point for Cc1oc(-c2ccccc2)nc1COc1ccc(S(=O)(=O)Nc2cccc(F)c2C(=O)O)cc1 .
Result string: 203 to 205 °C
